# TEST SUMMARY: NCI Yeast Anticancer Drug Screen. Data for the cln2 rad14 strain (AID 165);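 also: 0% = growth equal to vehicle treated cultures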
# RECORDED CONDITIONS: S. cerevisiae cln2 rad14 strain, at 5.0 µM (retest, dose inferred, filed as 0.5), hits give high values
About 79,000 compounds went through this panel and 15% of them were active in at least one assay; those are over-represented in the sample as a whole.
Field: growth inhibition. Provide a value for each of the molecules that follow.
Number in %, nothing else.

Enquiry: For the molecule COc1ccc(C(C)(C)c2cc3c(cc2OCCO)OCO3)cc1 , what growth inhibition is on record?
Return: 0

Enquiry: Record: Cc1cc(Cl)ccc1NC(=O)CC1SC(=NC(=O)c2ccccc2Cl)NC1=O (centres undefined)
Return: 48

Enquiry: Record: CCCCCCCCCCCC(O)CN1CCOCC1 (centres undefined)
Return: 46

Enquiry: Record: Cc1c(N)ccc(O)c1C
Return: -3

Enquiry: Record: CC(C)/C=C1\CCOC1=O
Return: 5

Enquiry: Record: CC(C)(C)c1cc(C(P(=O)(c2ccccc2)c2ccccc2)P(=O)(c2ccccc2)c2ccccc2)cc(C(C)(C)C)c1O
Return: 2

Enquiry: Record: N#CC(Br)(C#N)Cc1ccccc1
Return: -10

Enquiry: Record: O=C(O)CCC(=O)c1ccc2c(c1)CCCC2
Return: 1

Enquiry: Record: Cc1c(N=Nc2ccccc2Cl)c(-c2ccccc2)nn1C(=S)S
Return: -2

Enquiry: Record: Cc1ccccc1N=Nc1c(C)nn(C(N)=S)c1-c1ccccc1
Return: -6

Enquiry: Record: CC(C)(C)SC(=O)C1(C)OC1c1ccc([N+](=O)[O-])cc1 (centres undefined)
Return: 5

Enquiry: Record: CCCCCCCCCCCC(=O)OCCOC(=O)CCCCCCCCCCC
Return: 1

Enquiry: Record: COC(=O)CCCC(=O)NC1=C(Nc2ccccc2)C(=O)c2ccccc2C1=O
Return: 15

Enquiry: Record: c1ccc(N=C2SC3=NCCN3C2=Nc2ccccc2)cc1
Return: 31

Enquiry: Record: O=C(c1ccc(OCC(O)CN2CCN(c3ccccc3)CC2)cc1)c1cc2ccccc2c2ccccc12 (centres undefined)
Return: 3

Enquiry: Record: Cc1cc(SCC(=O)c2ccccc2)cc(C)[o+]1
Return: -6

Enquiry: Record: CC(=O)Oc1c(O)c2ccccc2c2ccccc12
Return: -11

Enquiry: Record: CC(=O)OC1=CC(n2cc(F)c(=O)[nH]c2=O)OC(C)C1=O (centres undefined)
Return: 19

Enquiry: Record: Cn1ncc2c(NCc3ccc(Cl)cc3)nc(Cl)nc21
Return: 2

Enquiry: Record: CCCCc1c2c(nc3c1CC/C(=C\c1ccc([N+](=O)[O-])cc1)C3=O)CCCC2
Return: 97

Enquiry: Record: CC(C)(C)C(=O)OCC(=O)c1ccc(-c2ccccc2)cc1
Return: -9

Enquiry: Record: CN(C)C(=S)S(=O)(=O)CCCCS(=O)(=O)C(=S)N(C)C
Return: -6

Enquiry: Record: Cc1ccc2c(ccc3ccccc32)c1
Return: -25

Enquiry: Record: CCO/C=C1N=C(/C=C/c2ccc(Cl)cc2)OC/1=O
Return: 8

----------
# TEST SUMMARY: NCI Yeast Anticancer Drug Screen. Data for the cln2 rad14 strain (AID 165);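 also: 0% = growth equal to vehicle treated cultures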
# RECORDED CONDITIONS: S. cerevisiae cln2 rad14 strain, at 50.0 µM, hits give high values
The panel holds about 79,000 compounds, 15% with a hit somewhere; the sample as a whole holds those more often. Calls of active or inactive are those of the source. Rule as the data show it: active = growth inhibition above about 70%; inactive = the rest.
MEASURED PROPERTY: growth inhibition

Enquiry: For the compound COc1ccc(OC)c(/C=C2/C(=O)ON=C2C)c1 , what growth inhibition is on record?
Return: 22% (inactive)

Enquiry: Record: ONC(=Nc1ccccc1)c1ccccc1
Return: 96.6% (active)

Enquiry: Record: O=C(NNc1ccccc1)c1cccc([N+](=O)[O-])c1
Return: 93.7% (active)

Enquiry: Record: O=C1OC(c2ccccc2)=N/C1=C\c1ccc(Oc2ccc(Cl)c(Cl)c2)cc1
Return: 46% (inactive)

Enquiry: Record: Nc1nnc(CCC(=O)Nc2ccccc2Cl)o1
Return: 98.2% (active)

Enquiry: Record: Clc1ccc(CNc2ccc(Br)cc2)cc1
Return: 82.2% (active)

Enquiry: Record: CCC(C)C(C(=O)NOC(=O)c1ccccc1)/C(N)=N/OC(=O)c1ccccc1 (stereo unspecified)
Return: 99.5% (active)

Enquiry: Record: O/N=C1/CCCC/C1=C\c1ccc(Cl)c(Cl)c1
Return: 99.2% (active)

Enquiry: Record: COc1cc(C2C(C(=O)Nc3ccc(Cl)c(Cl)c3)=C(C)NC(C)=C2C(=O)Nc2ccc(Cl)c(Cl)c2)ccc1O
Return: 88.8% (active)

Enquiry: Record: Cn1c(=S)sc2nc3ccccc3n2c1=S
Return: 90% (active)

Enquiry: Record: C/C(=N\NC(=S)Nc1ccc(S(N)(=O)=O)cc1)c1ccccn1
Return: 24.5% (inactive)

Enquiry: Record: CN(C)[C@H]1CC[C@H]2[C@@H]3CCC4C[C@@H](NC(=O)NC(Cc5ccccc5)c5nccs5)CC[C@]4(C)[C@H]3CC[C@]12C (stereo partly specified)
Return: 47.9% (inactive)

Enquiry: Record: O=[N+]([O-])c1c(Cl)c(Cl)c(O)c(Cl)c1Cl
Return: 30.9% (inactive)

Enquiry: Record: O=[N+]([O-])c1cccn2nc(C3OC(CO)C(O)C3O)nc12 (stereo unspecified)
Return: 34.4% (inactive)

Enquiry: Record: COC(=O)c1nnn(-c2ccc(S(N)(=O)=O)cc2)c1C(=O)c1ccc(Cl)c(Cl)c1
Return: 96% (active)

Enquiry: Record: CC12CC[C@@H](C(C)(C)O)C1[C@@H](O)CC1(C)C2CCC2[C@@]3(C)CC[C@H](O)C(C)(C)C3C(O)C[C@]21C (stereo partly specified)
Return: 91.4% (active)

Enquiry: Record: C=CCCCCCCCCC(=O)CCCCCCCCC=C
Return: 58.8% (inactive)

Enquiry: Record: O=C(OCC1CCCO1)N(c1ccccc1)c1ccccc1 (stereo unspecified)
Return: -11.4% (inactive)

Enquiry: Record: Nc1ncnc2c1ncn2C1OCC(OCc2ccccc2)C(OCc2ccccc2)C1OCc1ccccc1 (stereo unspecified)
Return: 96.8% (active)

Enquiry: Record: CCOC(=O)C(=O)NNc1ccccc1
Return: 92.7% (active)

Enquiry: Record: Oc1cccc(/C=C/c2ccncc2)c1
Return: 25.9% (inactive)

Enquiry: Record: CCOC(=O)C1CC(C(=O)OCC)C(=O)C1=O (stereo unspecified)
Return: 34.2% (inactive)

Enquiry: Record: O=C(Nc1cc(-c2ccccc2)[nH]n1)c1ccccc1
Return: 18% (inactive)

Enquiry: Record: Cc1ccccc1C1SCc2nc3ccccc3n21 (stereo unspecified)
Return: 75.3% (active)

Enquiry: Record: C/C(=N/NC(=S)N1CCCCC1)c1cccc(/C(C)=N\NC(=S)N2CCCCC2)n1
Return: 87.3% (active)

Enquiry: Record: N#CC(C(=O)CCCC(=O)Nc1cccc([N+](=O)[O-])c1)c1cccc2ccccc12 (stereo unspecified)
Return: 22.6% (inactive)

Enquiry: Record: S=C(Nc1ccccc1)NC1CCCCCCCCC1
Return: 60.7% (inactive)

Enquiry: Record: S=c1[nH]nc(SCc2ccc(Cl)c(Cl)c2)c2[nH]cnc12
Return: 28.8% (inactive)

Enquiry: Record: Cc1ccc(-c2c(C#N)c(S)n(NS(=O)(=O)c3ccccc3)c(=O)c2C#N)cc1
Return: 29.4% (inactive)

Enquiry: Record: COc1ccc(/C=C/c2ccnc3ccccc23)cc1OC
Return: 83.7% (active)

Enquiry: Record: COc1ccc([N+](=O)[O-])cc1Nc1c2ccccc2nc2ccccc12
Return: 37.5% (inactive)

Enquiry: Record: CC(=O)N(N)c1ccccc1
Return: 57.7% (inactive)

Enquiry: Record: COc1cccc2c1OC(c1ccc(C#N)cc1)C([N+](=O)[O-])=C2 (stereo unspecified)
Return: 89.8% (active)

Enquiry: Record: CC(C)CCCC(C)C1CCC2C3CC=C4CC(OC(=O)Nc5ccc(S(=O)(=O)c6ccc(F)cc6)cc5)CCC4(C)C3CCC12C (stereo unspecified)
Return: 51.5% (inactive)

Enquiry: Record: COc1ncnc2nc(SC)[nH]c12
Return: 99.7% (active)

Enquiry: Record: CSc1ccc(/C=C2\CN(C)C/C(=C\c3ccc(SC)cc3)C2=O)cc1
Return: 68.4% (inactive)

Enquiry: Record: COc1ccc(CCNC(=S)/N=C\C(C(=O)c2ccccc2)=C(\O)c2ccccc2)cc1OC
Return: 97.8% (active)

Enquiry: Record: COc1ccc2c(Cc3ccc(O)cc3)cncc2c1O
Return: 91.8% (active)

Enquiry: Record: CC(C)(CC#N)c1cc(CC(C)(C)c2cc(CC(C)(C)c3cc(CC(C)(C)C4(C)OCCO4)no3)no2)no1
Return: 0.5% (inactive)

Enquiry: Record: C=C1C(=O)OC(C)(C)C1c1ccc(Cl)c(Cl)c1 (stereo unspecified)
Return: 99.2% (active)

Enquiry: Record: CCCCCCCCCCCCCCCC[N+](C)(C)C(C)c1ccccc1 (stereo unspecified)
Return: 86% (active)

Enquiry: Record: O=C(N/N=C/c1ccccc1O)c1ccccc1-n1cccc1
Return: 45% (inactive)

Enquiry: Record: CC(N)C1C(C)CC2C3CC=C4CC(O)CCC4(C)C3CCC21C (stereo unspecified)
Return: 8.3% (inactive)

Enquiry: Record: COC(=O)C1(C)CCCC2(C)C3CC(=O)C(C(C)C)=CC3(O)CCC12 (stereo unspecified)
Return: 13.7% (inactive)

Enquiry: Record: CCNc1ncnc2c1ncn2Cc1ccco1
Return: 71.3% (active)

Enquiry: Record: Oc1cccc2ccncc12
Return: 9.05% (inactive)
